property-name: intrinsic clearance, human liver microsomes

Here are 5 compounds together with their reported answers.
# smiles-repr, recorded-result
records = [
    ("N#CCSCC(=O)NC1CCCCCC1", "≤ 4.74 mL/min/kg"),
    ("O=C1N=C2C=CC=CN2C12Cc1ccccc1C2", "≤ 4.74 mL/min/kg"),
    ("COc1cc(F)ccc1-c1ncccc1NC(=O)C(C)C", "≤ 4.74 mL/min/kg"),
    ("CC(C)(O)CCn1cc2cc(NC(=O)c3ccn(C(F)F)n3)c(OCC3COC3)cc2n1", "≤ 4.74 mL/min/kg"),
    ("Cc1cc(C)n(-c2ccc(C(=O)NCc3cccnc3)cc2)n1", "≤ 4.74 mL/min/kg"),
]

Entry `Cc1cnc(C(=O)N[C@H]2CCOC[C@@H]2O)cc1Cc1ccc(-c2cscn2)cc1` — recorded intrinsic clearance, human liver microsomes = ≤ 4.74 mL/min/kg

Entry `O=C(O)c1ccc(N2CCCC2)c(F)c1` — recorded intrinsic clearance, human liver microsomes = ≤ 4.74 mL/min/kg
